Target of assay: T1, SARS-CoV-2 spike RBD variant strain (SPD-C52Hn, Acro Biosystems, N501Y) (SARS-CoV-2, UniProt P0DTC2 319-537)
T1 construct: domain: RBD
Test summary: BLI (Octet), biotinylated RBD on SA sensor, VHH as analyte, 1:1 fit
Test readout: Kd (nM)
Quick note: give the figure in nM, leave out the unit.

Recorded result, Bacillus subtilis-derived VHH-COVE5 (VHH) VHH: EVQLVESGGGLVQAGGSLRLSCTASDQIFDNYNMAWFRQSPGKEREFVAALSWGDSNTGYADSVKGRFTISRDNAKNTVYLQMNSLKPEDTAVYYCYAVTWLRGDYWGQGTQVTVSS , Kd: 11.6

Recorded result, Bacillus subtilis-derived VHH-COVE7 (VHH) VHH: EVQLVESGGGLVQAGDSLRLSCTASGRTFSSCAMGWFRQAPGKEREFVAAISRGGGSTSYADSVKGRFTISKDRARNTAYLEMNSLKPEDTAIYYCYAVFPSGGDYWGQGTQVTVSS , Kd: 24

Recorded result, Bacillus subtilis-derived VHH-COVE8 (VHH) VHH: EVQLVESGGGLVQPGGSLTLSCAASGQTFSSYNMAWFRQSPGKEREFVATISWGGGSTGYADSVKGRFTISRDHAKNTVYLQMKDLKPEDTGAYYCYLVGLFGIQASDYWGQGTQVTVSS , Kd: 28.8

Recorded result, Bacillus subtilis-derived VHH-COVE2 (VHH) VHH: AEVQLVESGGGLVQAGDSLRLSCAATRRTSSTYAMGWFRQAPGKGLEWVAAISWDGGRTYYAESVKGRFTISRDNAKNTVYLQMNSLKPEDTAVYYCYSFGGSDFLMDYWGQGTQVTVSSGGGSHHHHHH , Kd: 4.01

Recorded result, Bacillus subtilis-derived VHH-COVE9 (VHH) VHH: EVQLVESGGGLVQPGGSLRLSCAASGTIFSTNAMSWYRQAPGKQRELVAAITSGGNTNYADSVKGRFTISRDNAKNTVYLQMNSLKPEDTAVYYCNAPGVVTGSYDVRNYWGQGTQVTVSS , Kd: 6.9
